- assay system: T1, Biotin Y46,48,51(SO3) PSGL-1(42-62) peptide (human, sulfotyrosine at Y46, Y48 and Y51; C-terminal Lys-biotin)
- T1 construct: also called fully sulfated N-terminal PSGL-1 peptide
- T1 peptide: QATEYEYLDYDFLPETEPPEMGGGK
- test: ELISA, immobilized biotin peptide
Parameter A450nm, 20 nM mAb: see the listing below.
Write the answer as a number in A450nm, unit excluded.

Worked set:
09D11 (antibody, IgG4, V domains shown) VH: QVQLVESGGGFIQPGGSLRLSCAASGLTFSNYAMTWVRQAPGKGLEWVSTISGGGGNTYYTDSVKGRFTISRDNSKNTLYLQMNSLKAEDTAVYRCAKGLAAALFDYWGQGTLVTVSS VL: DIVLTQSPDSLPVTPGEPASISCRSSRSLLHSNGHNFLAWYLQKPGQSPHLLIYLGSNRASGVPDRFSGSGSGTDFTLKISRVEAEDVGIYYCMQALQTPITFGQGTRLDIK	2.79
06B02 (antibody, IgG4, V domains shown) VH: QVQLVESGPGLVKPSETLSLTCTVSGVSVSSYYWTWVRQSPGKGLEWIGHVHHSGISNYNPSLKSRVVMSVDTSKNYFSLKLRSVTAADTAVYYCARGGPRISPTNWGQGTLVTVSS VL: QPVLTQPPSVSKALRQTATLTCTGNSNNVGYQGATWLRQHQGHPPRLLSYRNNNRPSGISERFSASRSGNTATLTITGLQPDDEADYYCAAWDSSLSAWVFGGGTKLTVL	2.57
09A02 (antibody, IgG4, V domains shown) VH: EVQLVQSGGGLVKPGGSLRLSCAASGFTFRTAWMSWVRQAPGKGLEWVGRMKSKNDGGTTDYAAPVKGRFTISRDDSRDTVYLQMNSLKTEDTGVYYCATYAAGATVPWGQGTLVTVSS VL: DIVMTQTPLSAPVTLGQPASISCRSSRSLLQRNGYNYVDWYQQKAGNPPRLLIYLGSRRASGVPDRFSGSGSDKDFTLKISRVEADDVGFYFCKQSLQAPPTFGGGTKIEIT	2.82
03D07 (antibody, IgG4, V domains shown) VH: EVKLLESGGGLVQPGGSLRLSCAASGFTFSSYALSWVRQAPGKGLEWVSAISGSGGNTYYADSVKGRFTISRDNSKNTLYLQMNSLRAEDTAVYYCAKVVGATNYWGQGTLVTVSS VL: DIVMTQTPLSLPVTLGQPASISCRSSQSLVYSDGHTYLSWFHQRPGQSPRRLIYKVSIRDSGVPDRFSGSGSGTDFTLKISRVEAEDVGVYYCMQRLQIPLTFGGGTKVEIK	2.73

Pending binder:
According to the records, this binder 02G01 (antibody, IgG4, V domains shown) VH: EVQLVQSGAEVKKPGASVKVSCKASGYTFTSYGISWVRQAPGQGLEWMGWISAYNGNTNYAQKLQGRVTMTTDTSTSTAYMELRSLRSDDTAVYYCARVTRLPGGGYAFDIWGQGTMVTVSL VL: QSVLTQPPSASGTPGQRITISCSGSTSNIGNKHVYWYQQFPGAAPKLLIHNTNKRPSGVPDRFSGSKSGTSASLAISGLQSDDEADYYCAAWDGSLSAWVFGGGTKLTVL displays A450nm, 20 nM mAb of 2.72
